Test system: SNB-19 CNS
protocol: NCI-60 one-dose screen, 48 h (100 = growth as untreated, 0 = no growth, -100 = all killed)
test settings: 10 µM unless noted
The panel holds about 83,000 compounds, 20% with a hit somewhere; the sample as a whole holds those more often.
Could you please mark TRUE for values of growth below 70% and FALSE for values at or above it?

// below: answered molecules
molecule	class label
O=C(O)c1ccc(-c2nn(-c3ccc(C(F)(F)F)cc3)cc2CNc2ccc(Oc3ccccc3)cc2)cc1	FALSE
C=C(C)[C@@H]1CC[C@]2(CN)CC[C@]3(C)[C@H](CC[C@@H]4[C@@]5(C)CCCNC(C)(C)[C@@H]5CC[C@]43C)[C@@H]12	TRUE
O=C(Nc1ccccc1)Nc1ccc2cc3ccc(NC(=O)Nc4ccccc4)cc3nc2c1	TRUE

Is growth of CNCCOc1nc2c3cnccc3cc(-c3cc(OC)c(OC)c(OC)c3)c2c2ccncc12 strictly below 70%?
TRUE

---

System: HCC-2998 colon
protocol: NCI-60 one-dose screen, 48 h (100 = growth as untreated, 0 = no growth, -100 = all killed)
test settings: 10 µM unless noted
About 83,000 compounds went through this panel and 20% of them were active in at least one assay; those are over-represented in the sample as a whole.
outcome measure: growth (%)
Respond numerically; units are % and should not be typed.

mol smiles	readout unit	quantitative result
Cc1ccc(C(=O)/C(=C/c2ccc([N+](=O)[O-])cc2)SCc2ccc(Cl)cc2)cc1	%	78.6
Cc1cc2nc3c4cc(C=O)ccc4n(CCN(C)C)c3nc2cc1C	%	40.6
CCN(CC)CCn1c(=O)c2cc(OC)c(OC)cc2c2ccc3cc4c(cc3c21)OCO4	%	74.9
Nc1n[nH]c2cccc(C#Cc3cccc(C(=O)Nc4cc(CN5CCOCC5)cc(C(F)(F)F)c4)c3)c12	%	45
COc1cc2nc(-c3ccc(C(F)(F)F)cc3)cc(OCCCN3CCCC3)c2cc1OC	%	70
COc1ccc(C(=O)c2cc(C)c(OC)c(C)c2)c(OC)c1N(C(=O)CCl)C(=O)CCl	%	13.5
Cn1cc(-c2csc(-c3c[nH]c4ccccc34)n2)c2ccnc(Cl)c21	%	92.4
CCOC(=O)c1cc(C(=O)c2ccc(Br)cc2)n2ccc(/C=C/c3cc[n+](CC(=O)c4ccc(OC)cc4)cc3)cc12	%	95.1

# ---- query compound ----
Param readout= growth; system= HCC-2998 colon; entry= OCc1cnc2ccccc2c1NC1CCCCCC1 ; returns value.
111

---

Tested on: SK-MEL-28 melanoma
protocol: NCI-60 one-dose screen, 48 h (100 = growth as untreated, 0 = no growth, -100 = all killed)
test settings: 10 µM unless noted
About 83,000 compounds went through this panel and 20% of them were active in at least one assay; those are over-represented in the sample as a whole.
outcome measure: growth (%)
Respond numerically; units are % and should not be typed.

Worked cases, answers included:
mol smiles	target	quantitative result
Cc1cccc(C)c1N=c1oc2ccc(Cl)cc2nc1-c1ccccc1O	SK-MEL-28 melanoma	93.4
O=C(Cn1c[n+](CC(=O)c2ccc([N+](=O)[O-])cc2)c2ccccc21)Nc1cccc2cccnc12	SK-MEL-28 melanoma	78.7
NS(=O)(=O)c1ccc(Cn2c(SCC(=O)N/N=C/c3ccccc3O)nc3ccccc3c2=O)cc1	SK-MEL-28 melanoma	57.7

Param readout= growth; system= SK-MEL-28 melanoma; entry= Cc1ccc(CNc2c3ccccc3nc3cc(NC(=O)CCN4CCCC4)ccc23)cc1 ; returns value.
53.6

Param readout= growth; system= SK-MEL-28 melanoma; entry= COc1cc(/C=N/O)nc(-c2ccccn2)c1 ; returns value.
18.2

---

Tested on: NCI-H23 lung
protocol: NCI-60 one-dose screen, 48 h (100 = growth as untreated, 0 = no growth, -100 = all killed)
test settings: 10 µM unless noted
Method: Growth inhibition of the NCI-H23 human Non-Small Cell Lung tumor cell line is measured as a screen for anti-cancer activity. Cells are grown in 96 well plates and exposed to the test compound for 48 hours. Compounds are tested at a single concentration, which is 10^-5 M for most compounds. The reported endpoint is percent growth (GI% or GIPRCNT), where numbers from 0 - 100% represent growth inhibition, and numbers from -100% - 0 represent cell death. […]
The panel holds about 83,000 compounds, 20% with a hit somewhere; the sample as a whole holds those more often.
Could you please mark 1 for values of growth below 40% and -1 for values at or above it?

// below: answered molecules
molecule	class label
Clc1ccc(-c2ccc(CNCC3CCNCC3)o2)c(-c2ccccc2)c1	1
C=C1C(=O)O[C@H]2[C@H]1CC/C(COC(=O)NCC(C)c1ccc(CC(C)C)cc1)=C\CC[C@@]1(C)O[C@@H]21 (stereo partly drawn)	1
CCCCCOc1ccc(/C=N/Nc2cc(C)nc3ccc(Cl)cc23)cc1	-1
C[C@H]1[C@H](C)CC[C@]2(C(=O)Nc3ccc4ncccc4c3)CC[C@]3(C)C(=CC[C@@H]4[C@@]5(C)CCCNC(C)(C)[C@@H]5CC[C@]43C)[C@H]12	-1
COc1cc(/C=N/NC(=O)c2cnn3c2NC(c2ccccc2)C3)ccc1OCc1ccccc1 (stereo not drawn)	1

Is growth of CC1(C)CC[C@]23CC[C@]4(C)[C@H](CC[C@@H]5[C@@]6(C)CCCNC(C)(C)[C@@H]6CC[C@]54C)[C@H]2[C@H]1OC3 strictly below 40%?
-1

Is growth of COc1ccc2c(c1)oc1c(C)c3c(c(C)c12)C(=O)N(N)C3=O strictly below 40%?
-1

Is growth of N#CC(C#N)=Cc1cc2ccccc2nc1Oc1ccc(C(F)(F)F)cc1 strictly below 40%?
-1

---

Test system: SN12C renal
protocol: NCI-60 one-dose screen, 48 h (100 = growth as untreated, 0 = no growth, -100 = all killed)
test settings: 10 µM unless noted
The panel holds about 83,000 compounds, 20% with a hit somewhere; the sample as a whole holds those more often.
Form field: growth (one value per entry).
Respond numerically; units are % and should not be typed.

Worked cases, answers included:
mol smiles	target	readout unit	growth
CC[C@]12C=CCN3CC[C@@]4(c5cc(NC(=O)CCC(=O)O[C@H]6CC[C@H]7[C@@H]8CCC9=CC(=O)CC[C@@H]9[C@H]8CC[C@]67C)c(OC)cc5N(C)[C@H]4[C@@](O)(C(=O)OC)[C@@H]1OC(C)=O)[C@@H]32	SN12C renal	%	81.5
COc1cc(-c2csc(NC(=O)c3cc(F)cc(C(F)(F)F)c3)n2)cc(OC)c1OC	SN12C renal	%	35
COc1cc2nc(-c3ccc(C(F)(F)F)cc3)cc(OCCCN3CCCC3)c2cc1OC	SN12C renal	%	44.5

# ---- query molecule ----
Quick one: growth for Nc1nc(Nc2ccccc2SSc2ccccc2Nc2nc(N)nc(-c3cccs3)n2)nc(-c2ccsc2)n1 ?
27.3

---

System: U251 CNS
protocol: NCI-60 one-dose screen, 48 h (100 = growth as untreated, 0 = no growth, -100 = all killed)
test settings: 10 µM unless noted
This is part of a sample that, as a whole, favours compounds with a hit. Of some 83,000 tested, about 20% had one in any assay. Active and inactive are the calls of the source. Rule for the calls: active = growth percent below 10; inactive = the rest.
outcome measure: growth

Quick one: growth for O=C1c2ccccc2C(=O)c2c([N+](=O)[O-])ccc(Cl)c21 ?
65.6% (inactive)

Quick one: growth for O=C(Nc1ccc(Cl)cc1)c1cc(NCc2cc(O)ccc2O)ccc1O ?
71.8% (inactive)

Quick one: growth for S=c1cc(S)c2cc(Br)ccc2[nH]1 ?
98.3% (inactive)

Quick one: growth for N#CC1C(C#N)C(C(=O)c2ccc(Br)cc2)N2c3ccccc3C=CC12 (configuration not stated) ?
84.6% (inactive)

Quick one: growth for N#CC(C#N)=Cc1cc2ccccc2nc1Oc1ccc(C(F)(F)F)cc1 ?
91.2% (inactive)

---

System: OVCAR-3 ovarian
protocol: NCI-60 one-dose screen, 48 h (100 = growth as untreated, 0 = no growth, -100 = all killed)
test settings: 10 µM unless noted
This is part of a sample that, as a whole, favours compounds with a hit. Of some 83,000 tested, about 20% had one in any assay.
outcome measure: growth (%)
Respond numerically; units are % and should not be typed.

Worked cases, answers included:
compound	growth (%)
O=C1/C=C/[C@@H](O)[C@@H]2C[C@@H](O)C[C@H]2/C=C/CCC[C@H](CCc2cccc3ccccc23)O1	-48.1
O=C(c1nc2ccccc2[nH]1)C1C(c2ccc(Br)cc2)C2CC3CCCC[C@H]3N2[C@@]12C(=O)Nc1cc(Cl)ccc12 (stereo not given in full)	34.3
Cc1c(C)c([N+](=O)[O-])c(C)c([N+](=O)[O-])c1C	109
Cc1cccc(C)c1N=c1oc2ccc(Cl)cc2nc1-c1ccccc1O	102
O=c1c2c(c(=O)n1O)c1c3ccc[nH]c3nc1c1nc3[nH]cccc3c12	98.3

Quick one: growth for COc1ccc(C(=O)c2cc(C)c(OC)c(C)c2)c(OC)c1NC(C)=O ?
5.93

Quick one: growth for COc1cccc(-c2cc(C(=O)Nc3ccc(/C=C/c4ccc(OC5CCN(C)CC5)cc4)cc3)ccc2OC)c1 ?
-82.9

Quick one: growth for NCCCCCCNc1cc(-c2cccc(OC(F)(F)F)c2)nc2ccc(N3CCCC3)cc12 ?
-82.4

Quick one: growth for O=[N+]([O-])c1ccc(NC(=S)N/N=C/c2cc3ccccc3n3nnnc23)cc1 ?
14.3

Quick one: growth for O=C1c2ccccc2CCC12OC2c1cn(-c2ccccc2)nc1-c1ccc(Cl)cc1 (stereo not given) ?
115

Quick one: growth for NC1=NN=C(N)C1=Cc1cc2ccccc2n2nnnc12 ?
105
